These data points were gathered from patent US8586768B2.

% activity change 3 μM listing for selected compounds.
# assayed target: PKCδ (Homo sapiens, UniProt Q05655)
# Sequence (Q05655 whole entry): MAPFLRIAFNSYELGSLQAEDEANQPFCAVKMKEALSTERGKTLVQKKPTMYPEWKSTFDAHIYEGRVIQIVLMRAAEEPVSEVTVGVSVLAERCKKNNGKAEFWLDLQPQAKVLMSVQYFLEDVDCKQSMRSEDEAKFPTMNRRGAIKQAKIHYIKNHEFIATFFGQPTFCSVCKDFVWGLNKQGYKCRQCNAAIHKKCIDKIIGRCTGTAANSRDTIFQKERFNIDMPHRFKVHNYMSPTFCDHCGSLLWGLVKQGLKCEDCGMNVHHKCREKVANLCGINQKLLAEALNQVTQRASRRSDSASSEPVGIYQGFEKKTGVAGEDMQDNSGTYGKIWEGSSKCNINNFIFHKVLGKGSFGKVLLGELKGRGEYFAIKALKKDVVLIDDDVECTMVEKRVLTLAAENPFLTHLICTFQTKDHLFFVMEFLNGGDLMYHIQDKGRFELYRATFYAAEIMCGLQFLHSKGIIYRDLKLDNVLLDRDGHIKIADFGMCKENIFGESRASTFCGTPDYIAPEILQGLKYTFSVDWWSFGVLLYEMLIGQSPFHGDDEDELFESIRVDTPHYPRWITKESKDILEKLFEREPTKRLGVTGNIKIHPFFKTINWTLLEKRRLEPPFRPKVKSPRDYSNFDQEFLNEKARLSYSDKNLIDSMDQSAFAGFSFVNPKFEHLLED
# assay notes: In vitro 32P phosphorylation kinase assay with histone substrate
# Type: biochemical
# settings: 3 μM compound; negative = inhibition
# Method: Since PK analogs are directed against PKCδ, it was first determined whether the analogs would inhibit PKCδ enzyme activity in kinase assays. The ability of lead PK analogs to inhibit purified human recombinant PKCδ enzyme activity by 32P phosphorylation kinase assay with histone as the substrate was measured. […] The extent of histone phosphorylation was determined after separation in SDS-PAGE and by phosphoimaging. […]
Unit % implied. Number only.

Name the recorded % activity change 3 μM for CC(=O)c1c(O)c(C)c(O)c(Cc2c(O)c3c(c4c2OC(c2ccccc2)CC4=O)OC(C)(C)C=C3)c1O (stereo not shown) .
−67

Name the recorded % activity change 3 μM for `CC(=O)c1c(O)c(C)c(O)c(Cc2c(O)c3c(c(C(=O)/C=C/c4ccccc4)c2O)OC(C)(C)C=C3)c1O` .
−40

Name the recorded % activity change 3 μM for `Oc1cc(O)c(Cc2c(O)cc(O)cc2O)c(O)c1` .
−65

Name the recorded % activity change 3 μM for `CC1(C)C=Cc2c(O)cc(O)c(C(=O)/C=C/c3ccccc3)c2O1` .
−73

---

% activity change listing for selected molecules.
# assayed target: PKAα (Homo sapiens, UniProt P17612)
# Construct: purchased Signal Chem (Richmond, BC, Canada)
# assay notes: In-vitro kinase profiling, radioisotope screening assay (Signal Chem)
# Assay type: biochemical
# settings: 5 μM compound, 50 μM ATP, vs vehicle control; negative = inhibition
Unit % implied. Number only.

Consider the worked cases shown below.
CC(=O)c1c(O)c(C)c(O)c(Cc2c(O)c3c(c(C(=O)/C=C/c4ccccc4)c2O)OC(C)(C)C=C3)c1O [Rottlerin]
1
Oc1cc(O)c(Cc2c(O)cc(O)cc2O)c(O)c1 [PK103]
3
CC1(C)C=Cc2c(O)cc(O)c(C(=O)/C=C/c3ccccc3)c2O1 [PK302]
1

The record that follows has no % activity change shown yet.
Name the recorded % activity change for CC(=O)c1c(O)c(C)c(O)c(Cc2c(O)c3c(c4c2OC(c2ccccc2)CC4=O)OC(C)(C)C=C3)c1O (stereo not shown) [PK202] .
10

---

% activity change listing for selected compounds.
# assayed target: ASK1 (Homo sapiens, UniProt Q99683)
# Construct: purchased Signal Chem (Richmond, BC, Canada)
# Sequence (Q99683 whole entry): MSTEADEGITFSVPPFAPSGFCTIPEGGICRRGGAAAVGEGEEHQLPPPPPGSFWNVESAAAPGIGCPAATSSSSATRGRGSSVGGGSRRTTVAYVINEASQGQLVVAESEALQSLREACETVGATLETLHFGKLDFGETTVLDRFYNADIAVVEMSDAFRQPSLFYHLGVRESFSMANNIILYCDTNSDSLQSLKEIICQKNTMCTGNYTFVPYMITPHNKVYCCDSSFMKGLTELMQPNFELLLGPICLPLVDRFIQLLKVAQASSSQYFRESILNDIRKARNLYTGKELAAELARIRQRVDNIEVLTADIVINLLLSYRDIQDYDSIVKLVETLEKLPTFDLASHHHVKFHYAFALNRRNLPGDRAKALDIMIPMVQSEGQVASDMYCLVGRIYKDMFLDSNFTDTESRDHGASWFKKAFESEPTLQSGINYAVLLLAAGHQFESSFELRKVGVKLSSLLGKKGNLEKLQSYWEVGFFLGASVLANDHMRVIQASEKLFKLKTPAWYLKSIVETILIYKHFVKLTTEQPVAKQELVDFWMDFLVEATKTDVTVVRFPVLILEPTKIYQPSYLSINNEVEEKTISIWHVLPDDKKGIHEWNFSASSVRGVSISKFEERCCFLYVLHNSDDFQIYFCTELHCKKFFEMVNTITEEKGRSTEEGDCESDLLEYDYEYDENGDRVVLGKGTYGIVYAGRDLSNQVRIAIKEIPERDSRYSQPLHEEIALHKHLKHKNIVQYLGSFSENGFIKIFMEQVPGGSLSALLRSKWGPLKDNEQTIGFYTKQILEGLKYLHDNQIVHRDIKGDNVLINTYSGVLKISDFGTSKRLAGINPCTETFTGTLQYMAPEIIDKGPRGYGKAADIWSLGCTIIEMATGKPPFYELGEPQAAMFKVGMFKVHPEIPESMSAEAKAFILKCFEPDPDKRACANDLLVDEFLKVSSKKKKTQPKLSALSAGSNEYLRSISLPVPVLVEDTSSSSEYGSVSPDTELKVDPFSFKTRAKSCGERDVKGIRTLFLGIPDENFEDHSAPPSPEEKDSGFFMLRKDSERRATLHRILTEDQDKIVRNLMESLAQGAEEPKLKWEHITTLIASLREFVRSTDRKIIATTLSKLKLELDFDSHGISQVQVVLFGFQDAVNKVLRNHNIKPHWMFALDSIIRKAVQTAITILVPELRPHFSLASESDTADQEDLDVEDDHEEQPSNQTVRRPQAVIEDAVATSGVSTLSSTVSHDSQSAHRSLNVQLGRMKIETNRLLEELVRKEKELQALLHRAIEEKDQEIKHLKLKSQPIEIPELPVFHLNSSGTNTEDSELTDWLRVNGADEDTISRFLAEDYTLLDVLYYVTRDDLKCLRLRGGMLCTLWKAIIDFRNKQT
# assay notes: In-vitro kinase profiling, radioisotope screening assay (Signal Chem)
# Type: biochemical
# settings: 5 μM compound, 50 μM ATP, vs vehicle control; negative = inhibition
Unit % implied. Number only.

CC(=O)c1c(O)c(C)c(O)c(Cc2c(O)c3c(c(C(=O)/C=C/c4ccccc4)c2O)OC(C)(C)C=C3)c1O [Rottlerin]
2
CC(=O)c1c(O)c(C)c(O)c(Cc2c(O)c3c(c4c2OC(c2ccccc2)CC4=O)OC(C)(C)C=C3)c1O (stereo not shown) [PK202]
4
Oc1cc(O)c(Cc2c(O)cc(O)cc2O)c(O)c1 [PK103]
0

The record that follows has no % activity change shown yet.
Name the recorded % activity change for CC1(C)C=Cc2c(O)cc(O)c(C(=O)/C=C/c3ccccc3)c2O1 [PK302] .
0

---

# assayed target: UniProt:Q05655
# assay notes: In vitro 32P phosphorylation kinase assay with histone substrate
# Format: biochemical
test readout: IC50 (µM)
Unit µM implied. Number only.

Name the recorded IC50 for CC(=O)c1c(O)c(C)c(O)c(Cc2c(O)c3c(c(C(=O)/C=C/c4ccccc4)c2O)OC(C)(C)C=C3)c1O [Rottlerin] .
13.6
